# System: MDA-N
# PROTOCOL DETAILS: NCI tumour cell line growth inhibition, 48 h
// reported TGI per item

Would you please look over these solved cases?
Query string: TGI lookup needed for COc1ccc(C(OCC2OC(n3cnc4c(=O)n(Cc5ccccc5[N+](=O)[O-])nnc43)C(O)C2O)(c2ccccc2)c2ccc(OC)cc2)cc1 (centres undefined) , thanks.
Result string: 47.6 µM

Query string: TGI lookup needed for C[C@H](CCC(=O)NN)[C@H]1CC[C@H]2[C@@H]3CC[C@@H]4C[C@H](O)CC[C@]4(C)[C@H]3CC[C@]12C , thanks.
Result string: > 100 µM

Query string: TGI lookup needed for CCCCCC(/C=N/Nc1ccccc1)C(O)(C(F)(F)F)C(F)(F)F (centres undefined) , thanks.
Result string: > 100 µM

Query string: TGI lookup needed for CCCCCCCCCCCCCCCCCCOP(=O)([O-])OC1CC[N+](C)(C)CC1 , thanks.
Result string: 26.5 µM

Query string: TGI lookup needed for O=C(O)c1ccccc1SCc1cccc2c(=O)c3ccc(Cl)cc3oc12 , thanks.
Result string: > 50 µM

Further cases:
Query string: TGI lookup needed for COc1cccc2c1C(=O)c1c(O)c3c(c(O)c1C2=O)CC(O)(C(O)CO)CC3OC1CC2C(OC3COCC(C#N)N32)C(C)O1 (centres undefined) , thanks.
Result string: < 0.01 µM

Query string: TGI lookup needed for S=C(Nc1c2c(nc3ccccc13)CCCC2)Nc1c2c(nc3ccccc13)CCCC2 , thanks.
Result string: > 100 µM

Query string: TGI lookup needed for Cc1ccc2nc(C=Nc3ccccc3Cl)cc(C)c2c1 , thanks.
Result string: 23.8 µM

Query string: TGI lookup needed for O=C(CC(=O)Nc1ccccc1Cl)NNC(c1cc(N=Nc2ccc(Br)cc2)ccc1O)P(O)O (centres undefined) , thanks.
Result string: > 10 µM
